The reported measurements were obtained from PubChem BioAssay (NCI).

Examples of molecules with documented TGI follow.
# Test system: EKVX NSCLC
# Test method notes: NCI tumour cell line growth inhibition, 48 h

# Molecule, TGI
measured = [
    ("COc1ccc2[nH]cc(CCNC(=O)[C@H](Cc3ccc(O)cc3)NC(=O)[C@@H](NCC(F)(F)F)C(C)C)c2c1", "> 100 µM"),
    ("Cc1cc(OCc2nnc3n2S(=O)(=O)c2ccccc2N3C)ccc1Cl", "> 100 µM"),
    ("CC(C)(C)OC(=O)NCC(CNC(=O)OC(C)(C)C)C(N)=O", "> 100 µM"),
    ("C[C@H](Nc1nc(N)c(N=O)c(=O)n1C)C(=O)O", "> 10 µM"),
    ("O=c1cc(-c2ccc(F)cc2)[nH]c2ncccc12", "> 100 µM"),
    ("NC(=O)c1cc(N2CC2)c([N+](=O)[O-])cc1[N+](=O)[O-]", "> 200 µM"),
    ("COc1ccc2c(c1)c(-c1nc(-c3cn(C)c4ccncc34)cs1)cn2C", "3.56 µM"),
    ("CC(C)(C)c1cc(/C=C(\\C#N)C2=NCCO2)cc(C(C)(C)C)c1O", "17.2 µM"),
    ("NC(=O)CC1OC(=O)Cc2cc3c(c(O)c21)C(=O)c1c(O)cccc1C3=O (stereo not drawn)", "> 100 µM"),
    ("COC(=O)CCC(=O)Nc1ccc(Cl)cc1C", "> 100 µM"),
    ("CC#Cc1c(O)c2c(c(O)c1C#CC)C(=O)c1ccccc1C2=O", "> 100 µM"),
    ("COC(=O)[C@H](Cc1ccccc1)NC(=O)c1ccc(CNC(=O)/C=C/c2ccc(OCc3ccccc3)cc2)cc1", "87.6 µM"),
    ("Fc1cccc(COc2ccc(Nc3ncnc4onc(-c5ccccc5)c34)cc2)c1", "> 100 µM"),
]
